target-of-assay: DnaK, untreated control (E. coli, UniProt P0A6Y8 1-638)
Sequence (P0A6Y8 whole entry): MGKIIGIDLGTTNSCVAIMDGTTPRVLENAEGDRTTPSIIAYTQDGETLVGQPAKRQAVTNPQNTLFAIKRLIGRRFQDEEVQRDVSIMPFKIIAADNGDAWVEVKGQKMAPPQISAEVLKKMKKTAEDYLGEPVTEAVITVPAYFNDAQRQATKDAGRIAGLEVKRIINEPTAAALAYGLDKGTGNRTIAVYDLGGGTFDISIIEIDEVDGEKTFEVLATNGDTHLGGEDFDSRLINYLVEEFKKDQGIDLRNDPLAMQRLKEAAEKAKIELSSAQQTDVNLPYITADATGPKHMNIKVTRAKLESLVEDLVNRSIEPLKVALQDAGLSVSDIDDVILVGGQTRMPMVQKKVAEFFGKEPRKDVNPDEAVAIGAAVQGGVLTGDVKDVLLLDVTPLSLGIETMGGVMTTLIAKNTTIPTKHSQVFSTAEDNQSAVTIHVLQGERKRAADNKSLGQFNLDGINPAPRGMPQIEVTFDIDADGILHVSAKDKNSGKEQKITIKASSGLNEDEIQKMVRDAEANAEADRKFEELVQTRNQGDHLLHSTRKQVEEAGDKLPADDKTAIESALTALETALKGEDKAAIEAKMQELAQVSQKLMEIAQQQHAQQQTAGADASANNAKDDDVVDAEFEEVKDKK
method: fluorescence polarisation; steady state; 20 nM FITC-…, increasing concentrations of DnaK, 60 min incubation, Buffer B (50 mM Tris-HCl pH 7.5, 100 mM KCl, 5 mM MgCl2), room temperature; apo or ADP state; single site binding model
recorded-conditions: both partners purified
pKd: −log10 of the molar value. No end group written: not given here. *: point of attachment. FITC = O=C1OC2(c3ccc(O)cc3Oc3cc(O)ccc32)c2ccc(NC(=S)*)cc21

binder | pKd
{FITC}-ALLLSAPRR (also called FAR) [FITC-ALLLSAPRR peptide] | 6.30 to 6.70
